Test system: Klebsiella pneumoniae
assay_protocol: Antibacterial activity against plasmid-mediated AmpC beta-Lactamase DHA-1 and ESBL-producing Klebsiella pneumoniae by Etest
Format: functional
Reported MIC90 by item:
# unit: µg/mL | format: bare number

compound: C[C@@H](O)[C@H]1C(=O)N2C(C(=O)O)=C(SCCNC=N)C[C@H]12 [IMIPENEM ANHYDROUS]
MIC90, µg/mL: 2

compound: C[C@@H](O)[C@H]1C(=O)N2C(C(=O)O)=C(S[C@@H]3CN[C@H](C(=O)N(C)C)C3)[C@H](C)[C@H]12
MIC90, µg/mL: 0.5

Next compound, MIC90 to be filled in.
I would be grateful if you could share the reported MIC90 for `C[C@@H](O)[C@H]1C(=O)N2C(C(=O)O)=C(S[C@@H]3CN[C@H](C(=O)Nc4cccc(C(=O)O)c4)C3)[C@H](C)[C@H]12` .
2

// data source = ChEMBL document CHEMBL1671765
